Reference source: PubChem BioAssay

- System: Fibrinogen (Alexa647-labelled)
- assay: Alexa647-fibrinogen binding to printed small molecules – biochemical, small-molecule microarray, 635/667 nm fluorescence, artefact control for SMM control-protein annotation, profiling panel (AID 1131);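 note: z-score merges 667 nm fluorescence with per-spot signal-to-noise over triplicate slides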
- assay setup: fibrinogen-A647 binding fluorescence, higher = more signal
Mark Condition not met for composite z-score values under 0.4, and Condition met for everything at or above.

These solved cases illustrate the format of a correct answer.
CCCC=C(CCC)[C@@H](NC(=O)c1ccc(C(F)(F)F)cc1)c1ccc(C(F)(F)F)cc1; Condition met
CCOC(=O)C[C@H]1[C@H](OC(=O)c2ccccc2-c2ccccc2)[C@@H](NC(=O)C2CCCCC2)c2cc(OCCCO)ccc2N1C(=O)c1ccc2ccccc2n1; Condition met
C=CCOC(=O)[C@H]1[C@@H]2C(=O)O[C@@H](c3ccccc3)[C@@H](c3ccccc3)N2[C@@H](c2ccc(OCCOC(=O)[C@H]3C[C@H]4C(=O)N[C@@H](CC(C)C)C(=O)N4[C@H]3c3ccc(O)cc3)cc2)[C@]12C(=O)Nc1ccccc12; Condition met
C[N+](C)(C)CCCC[C@@H]1NC(=O)[C@@H]2C[C@H](C(=O)NCc3ccc(F)cc3)[C@H](c3ccc(O)cc3)N2C1=O; Condition not met
C=C(C)[C@@H]1CC=C(C(O)C2C=CC3C(=O)N(C)C(=O)C3N2Nc2ccc([N+](=O)[O-])cc2[N+](=O)[O-])CC1 (stereo partly drawn); Condition met
COCCOC(=O)N1C(=O)[C@@]2(c3cc(C#CC4(O)CCCCCC4)ccc31)[C@H](c1ccc(O)cc1)N1[C@H](c3ccccc3)[C@H](c3ccccc3)OC(=O)[C@H]1[C@@H]2C(=O)N1CCCCCCC1; Condition met
O=C1C[C@@](C(=O)NC2CC2)(c2ccc([N+](=O)[O-])cc2)[C@@H](c2ccc(CO)cc2)N1C1CCCCC1; Condition not met
CCCN1C(=O)[C@]2(CCC(=O)OC(C)(C)C)N=C(c3ccc(OCCCO)cc3)O[C@@H]2c2ccccc21; Condition met
C=C(C)[C@@H]1CC=C(C(O)C2C=CC3C(=O)N(c4ccccc4)C(=O)C3N2Nc2ccc([N+](=O)[O-])cc2)CC1 (stereo partly drawn); Condition met
CC(C)OC(=O)CC(=O)CC(O)c1cccc([N+](=O)[O-])c1 (stereo not drawn); Condition met

Problem: Decide: is the reported value of composite z-score for C=CCC(OC(C)=O)[C@@H]1[C@@H](N(Cc2ccc(-c3cccc(C(F)(F)F)c3)o2)C(=O)Cc2ccc(F)cc2)c2cc(OCCCO)ccc2N1C(=O)Cc1ccc2ccccc2c1 (stereo partly drawn) equal to or greater than 0.4?
Solution: Condition not met

Problem: Also, Cc1ccc(S[C@]2(C(=O)NCc3ccccc3)CC(=O)N(Cc3ccccc3C(F)(F)F)[C@@H]2c2ccc(CO)cc2)cc1 please.
Solution: Condition met

Problem: Also, COc1ccc([Si](C)(C)[C@H]2[C@H](CC(=O)N3Cc4ccccc4C[C@H]3CO)O[C@@]3(C(=O)N(c4ccccc4)c4ccccc43)[C@@H]2C)cc1 please.
Solution: Condition met

* * *

- assay: probe aXIP binding to arrayed compounds – biochemical, NeuroSMM set, 635/667 nm fluorescence, primary screen (AID 1119);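 note: probe is the protein aXip251-270 applied at 1 µg/mL to compound-printed slides; binding of probe to printed compounds measured as 667 nm fluorescence plus signal to noise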
- assay setup: small-molecule microarray, higher = more signal, called active from +8 up or from −8 down
The source made the active and inactive calls.
assay metric: composite Z-score

C=CCC(OC(C)=O)[C@@H]1[C@@H](N(Cc2cccc3ccccc23)C(=O)Cc2ccc(OC)cc2)c2cc(OCCCO)ccc2N1C(=O)Cc1ccc2ccccc2c1 (some centres not stated); 0.181 (inactive)
COC(=O)[C@@]1(Cc2ccccc2)N=C(c2ccc(OCCCO)cc2)O[C@H]1c1ccccc1CN=[N+]=[N-]; 0.282 (inactive)
O=C1O[C@@H](c2ccccc2)[C@@H](c2ccccc2)N2[C@@H](c3ccc(OCCO)cc3)[C@]3(C(=O)Nc4ccc(C#CC5(O)CCCCCC5)cc43)[C@@H](C(=O)Nc3nc4ccccc4s3)[C@H]12; -0.144 (inactive)
CC(C)=CCCC(C)=CC(O)C1C=CC2C(=O)NC(=O)C2N1Nc1ccc(Cl)cc1Cl (configuration not stated); -0.0883 (inactive)
CCOC(=O)C[C@H]1[C@H](OC(=O)c2cc3ccccc3oc2=O)[C@@H](NC(=O)CC(C)C)c2cc(OCCCO)ccc2N1C(=O)Cc1ccc(OC)cc1; 0.642 (inactive)

Problem: Find the recorded composite Z-score belonging to CC(C)NC(=O)[C@@]1(C)c2ccccc2C(=O)N(Cc2ccccc2)[C@H]1c1ccc(CO)cc1 and report it.
Solution: -0.621 (inactive)

Problem: Also, C=C(COC)/C(=C/C[C@H](OC(C)=O)c1ccccc1OCCO)c1cc(C(=O)OC)ccc1OC please.
Solution: 0.131 (inactive)
